Every entry's value here was drawn from patent US10513521B2.

# ASSAY_SYSTEM: ALK5 (Homo sapiens, UniProt P36897)
# Sequence (P36897 34-503): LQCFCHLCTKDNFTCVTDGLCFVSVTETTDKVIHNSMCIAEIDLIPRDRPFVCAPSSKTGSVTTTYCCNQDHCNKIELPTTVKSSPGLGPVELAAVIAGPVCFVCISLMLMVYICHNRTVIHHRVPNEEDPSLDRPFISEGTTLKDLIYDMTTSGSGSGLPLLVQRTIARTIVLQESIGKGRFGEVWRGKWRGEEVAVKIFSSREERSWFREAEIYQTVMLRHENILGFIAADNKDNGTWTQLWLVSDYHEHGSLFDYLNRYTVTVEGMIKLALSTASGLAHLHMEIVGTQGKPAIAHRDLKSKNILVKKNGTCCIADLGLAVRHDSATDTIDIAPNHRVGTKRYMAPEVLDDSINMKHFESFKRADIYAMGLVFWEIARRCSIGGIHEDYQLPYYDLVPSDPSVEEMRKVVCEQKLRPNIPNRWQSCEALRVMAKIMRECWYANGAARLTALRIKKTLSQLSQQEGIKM
# METHOD_NOTES: TR-FRET enzymatic ALK kinase assay, ALK5
PARAMETER_MEASURED: IC50

So, C[C@@H]1CNC[C@H](C)N1c1ccc(-c2cnc3c(-c4cccc(C(N)=O)c4)cnn3c2)cc1 [Compound 67] ? Its IC50 was 8.4 µM

Per the records, this compound ( C[C@@H]1CNC[C@H](C)N1c1ccc(-c2cnc3c(-c4cc(C#N)cc(S(N)(=O)=O)c4)cnn3c2)cc1 [Compound 79] ) has IC50 equal to > 10 µM

Record C[S+](=O)([O-])c1cccc(-c2cnn3cc(-c4ccc(CCN5CCC6(CC5)CNC6)cc4)cnc23)c1 [Compound 178] . Reported IC50: > 10 µM

Item: CC(C)(CN1CCCCC1)Oc1ccc(-c2cnc3c(-c4cccc5c(C(N)=O)cccc45)cnn3c2)cc1 [Compound 18] | IC50: 13.5 µM

Summary for this compound, NC1(c2ccc(-c3cnc4c(-c5ccc(S(N)(=O)=O)c6ccccc56)cnn4c3)cc2)CC1 [Compound 192] : IC50 is > 10 µM

IC50 recorded for this compound, CS(=O)(=O)c1cccc(-c2cnn3cc(-c4ccc(OC5(CN6CCCC6)CC5)cc4)cnc23)c1 [Compound 170] , is > 10 µM

Short answer for C[C@@H]1CNC[C@H](C)N1c1ccc(-c2cnc3c(-c4cc(N)cc5ccccc45)cnn3c2)cc1 [Compound 58] : IC50 was > 10 µM

----------
Task for the reader: assign each of the following molecules its reported pIC50.
# ASSAY_SYSTEM: ALK1 (Homo sapiens)
# Sequence (P37023 22-503): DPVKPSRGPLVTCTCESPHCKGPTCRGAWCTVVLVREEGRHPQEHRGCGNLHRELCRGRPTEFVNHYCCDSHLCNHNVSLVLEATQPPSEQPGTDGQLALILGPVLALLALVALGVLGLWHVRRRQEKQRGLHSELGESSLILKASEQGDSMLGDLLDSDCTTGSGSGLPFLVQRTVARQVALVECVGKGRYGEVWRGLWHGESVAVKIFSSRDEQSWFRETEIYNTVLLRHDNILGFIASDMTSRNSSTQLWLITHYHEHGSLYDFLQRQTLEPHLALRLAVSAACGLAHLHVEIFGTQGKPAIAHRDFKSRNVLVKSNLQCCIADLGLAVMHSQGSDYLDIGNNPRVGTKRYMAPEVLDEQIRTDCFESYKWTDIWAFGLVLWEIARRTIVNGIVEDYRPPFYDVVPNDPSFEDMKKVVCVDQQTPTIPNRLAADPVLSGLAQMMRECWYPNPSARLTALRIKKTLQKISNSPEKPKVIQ
# METHOD_NOTES: TR-FRET enzymatic ALK kinase assay, ALK1
Friendly reminder that pIC50 comes from taking -log10 of the concentration in mol/L.

// pIC50 lookup, molecule = C[C@@H]1CNC[C@H](C)N1c1ccc(-c2cnc3c(-c4ccc(-c5nn[nH]n5)c5ccccc45)cnn3c2)cc1 , result: 7.32

Consider NS(=O)(=O)c1cccc(-c2cnn3cc(-c4ccc(CCN5CCCCC5)cc4)cnc23)c1 . Its measured pIC50 is 6.24

Documented pIC50 of CS(=O)(=O)c1cccc(-c2cnn3cc(-c4ccc(OC5(CN6CCCCC6)CC5)cc4)cnc23)c1 : 6.57

Field pIC50 (entry C[C@@H]1CNC[C@H](C)N1c1ccc(-c2cnc3c(-c4cccc([S+](=O)([O-])C5CC5)c4)cnn3c2)cc1 ) reads 6.92

Just so you know, measured pIC50 for CC(O)c1cccc(-c2cnn3cc(-c4ccc(CCN5CCC(O)C5)cc4)cnc23)c1 (centres unmarked) came out at 6.10

What the record says about CS(=O)(=O)c1cccc(-c2cnn3cc(-c4ccc(CCN5CCOCC5)cc4)cnc23)c1 : pIC50 is 6.12

Notebook: CN1CCN(c2ccc(-c3cnc4c(-c5ccc(S(N)(=O)=O)c6ccccc56)cnn4c3)cc2)CC1 , pIC50 read as 6.85

----------
Field: pIC50. Provide a value for each of the compounds that follow.
# ASSAY_SYSTEM: ALK3 (Homo sapiens, UniProt P36894)
# Sequence (P36894 24-532): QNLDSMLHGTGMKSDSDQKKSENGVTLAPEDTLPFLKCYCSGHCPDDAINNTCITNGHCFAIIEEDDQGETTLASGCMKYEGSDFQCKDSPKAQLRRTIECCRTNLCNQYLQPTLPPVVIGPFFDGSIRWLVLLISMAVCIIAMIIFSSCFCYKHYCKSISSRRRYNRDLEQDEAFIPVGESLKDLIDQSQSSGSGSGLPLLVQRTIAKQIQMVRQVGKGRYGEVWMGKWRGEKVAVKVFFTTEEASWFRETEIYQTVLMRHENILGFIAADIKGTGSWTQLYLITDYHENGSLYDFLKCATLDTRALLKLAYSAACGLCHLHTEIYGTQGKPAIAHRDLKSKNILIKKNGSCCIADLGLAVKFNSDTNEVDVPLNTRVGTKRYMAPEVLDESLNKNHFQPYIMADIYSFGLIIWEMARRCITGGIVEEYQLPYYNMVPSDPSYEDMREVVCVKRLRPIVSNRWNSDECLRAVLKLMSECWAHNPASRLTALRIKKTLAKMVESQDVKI
# METHOD_NOTES: TR-FRET enzymatic ALK kinase assay, ALK3
Note: pIC50 values are expressed as the negative base-10 logarithm of concentration in M.

Summary: CC(C)(O)c1cccc(-c2cnn3cc(-c4ccc(C5CCNCC5)cc4)cnc23)c1 , ALK3 (Homo sapiens, UniProt P36894), pIC50 = 5.48

Measured pIC50 (ALK3 (Homo sapiens, UniProt P36894)), entry CNS(=O)(=O)c1cccc2c(-c3cnn4cc(-c5ccc(N6[C@H](C)CNC[C@@H]6C)cc5)cnc34)cccc12 : 5.80

The compound CNS(=O)(=O)c1cccc(-c2cnn3cc(-c4ccc(N5[C@H](C)CNC[C@@H]5C)cc4)cnc23)c1 , tested on ALK3 (Homo sapiens, UniProt P36894), showed pIC50 of 6.05

The value of pIC50 recorded for C[C@@H]1CNC[C@H](C)N1c1ccc(-c2cnc3c(-c4cccc([S+](=O)([O-])C5CC5)c4)cnn3c2)cc1 when tested on ALK3 (Homo sapiens, UniProt P36894) reads 6.01

// compound O=C(O)c1cccc2c(-c3cnn4cc(-c5ccc(N6CCNCC6)cc5)cnc34)cccc12 , assay ALK3 (Homo sapiens, UniProt P36894), pIC50 value: 7.77

Entry CC(O)c1cccc(-c2cnn3cc(-c4ccc(N5[C@H](C)CNC[C@@H]5C)cc4)cnc23)c1 (some centres unmarked) : pIC50 on ALK3 (Homo sapiens, UniProt P36894) = 6.28

The compound C[C@@H]1CNC[C@H](C)N1c1ccc(-c2cnc3c(-c4cccc(CO)c4)cnn3c2)cc1 , tested on ALK3 (Homo sapiens, UniProt P36894), showed pIC50 of 5.77

Entry C[S+](=O)([O-])c1cccc(-c2cnn3cc(-c4ccc(OC5(CN6CC(F)(F)C6)CC5)cc4)cnc23)c1 ; assay system ALK3 (Homo sapiens, UniProt P36894); pIC50 recorded at 5.62

C[C@@H]1CNC[C@H](C)N1c1ccc(-c2cnc3c(-c4ccc(CO)c5ccccc45)cnn3c2)cc1 tested on ALK3 (Homo sapiens, UniProt P36894) gave pIC50: 7.47

Item C[C@H](O)c1cccc(-c2cnn3cc(-c4ccc(OC5(CN6CCC7(CC6)CNC7)CC5)cc4)cnc23)c1 was tested on ALK3 (Homo sapiens, UniProt P36894); the reported pIC50 is 5.70

Assay ALK3 (Homo sapiens, UniProt P36894), sample O=C(O)c1ccc(-c2cnn3cc(-c4ccc(N5CCNCC5)cc4)cnc23)c2ccccc12 , pIC50 read: 6.01

Simply: C[C@@H]1CNC[C@H](C)N1c1ccc(-c2cnc3c(-c4ccc(Cl)c5ccccc45)cnn3c2)cc1 , ALK3 (Homo sapiens, UniProt P36894), pIC50 = 5.70

Assay ALK3 (Homo sapiens, UniProt P36894), sample CS(=O)(=O)c1cccc(-c2cnn3cc(-c4ccc(OC5(CN6CCCCC6)CC5)cc4)cnc23)c1 , pIC50 read: 5.85

Bench note, ALK3 (Homo sapiens, UniProt P36894): entry CC(C)S(=O)(=O)c1cccc(-c2cnn3cc(-c4ccc(N5[C@H](C)CNC[C@@H]5C)cc4)cnc23)c1 , its pIC50 = 5.96

----------
Consider the following molecules; for each one, report its IC50.
# ASSAY_SYSTEM: ALK6 (Homo sapiens)
# Sequence (O00238 14-502): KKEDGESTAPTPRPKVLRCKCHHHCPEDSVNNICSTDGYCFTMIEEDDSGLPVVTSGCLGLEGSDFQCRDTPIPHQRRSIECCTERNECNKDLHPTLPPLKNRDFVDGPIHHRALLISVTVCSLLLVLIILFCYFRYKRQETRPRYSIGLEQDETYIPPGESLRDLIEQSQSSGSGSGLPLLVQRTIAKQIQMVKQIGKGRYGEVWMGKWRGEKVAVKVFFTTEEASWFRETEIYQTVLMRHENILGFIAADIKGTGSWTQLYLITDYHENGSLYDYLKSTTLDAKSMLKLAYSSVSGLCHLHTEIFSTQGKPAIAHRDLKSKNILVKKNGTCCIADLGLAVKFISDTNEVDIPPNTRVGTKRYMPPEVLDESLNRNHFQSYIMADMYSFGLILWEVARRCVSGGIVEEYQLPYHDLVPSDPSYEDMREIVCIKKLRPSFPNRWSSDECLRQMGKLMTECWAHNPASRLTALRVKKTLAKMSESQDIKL
# METHOD_NOTES: TR-FRET enzymatic ALK kinase assay, ALK6

// IC50 value for CC(O)c1cccc(-c2cnn3cc(-c4ccc(C5(N)CC5)cc4)cnc23)c1 (stereo not shown) : > 10 µM

// sample CC(O)c1cccc(-c2cnn3cc(-c4ccc(OCCN5CCCC5)cc4)cnc23)c1 (stereo not shown) , its IC50 was > 10 µM

Recorded result, NC(c1ccc(-c2cnn3cc(-c4ccc(OCCN5CCCCC5)cc4)cnc23)cc1)C(F)(F)F (stereo not shown) , IC50: > 10 µM

The molecule identified as CS(=O)(=O)c1cccc(-c2cnn3cc(-c4ccc(OC5(CN6CCNCC6)CC5)cc4)cnc23)c1 registered its IC50 at 5.7 µM

For reference, reported IC50 for CN1CCC(c2ccc(-c3cnc4c(-c5cccc(C(C)(C)O)c5)cnn4c3)cc2)CC1 stands at > 10 µM

# IC50 (molecule: CC(C)(CN1CCCCC1)Oc1ccc(-c2cnc3c(-c4cccc(S(C)(=O)=O)c4)cnn3c2)cc1 ) is > 10 µM

Lab note: measured IC50 of C[S+](=O)([O-])c1cccc(-c2cnn3cc(-c4ccc(OC5(CN6C7CCC6CC7)CC5)cc4)cnc23)c1 was > 10 µM

Value of measured IC50 for the entry C[C@H](O)c1cccc(-c2cnn3cc(-c4ccc(OC5(CN6C7CCC6CC7)CC5)cc4)cnc23)c1 : 8.9 µM

Query CS(=O)(=O)c1cccc(-c2cnn3cc(-c4ccc(C5CCNCC5)cc4)cnc23)c1 yields IC50 of > 10 µM

Reported IC50 of CS(=O)(=O)c1cccc(-c2cnn3cc(-c4ccc(CCN5CCOCC5)cc4)cnc23)c1 : 5.1 µM

----------
Consider the following molecules; for each one, report its pIC50.
# ASSAY_SYSTEM: ALK2 (Mus musculus, UniProt P37172)
# Construct: The C2C12 cell line was selected for the measurement of ALK2 activity using BMP6 as the agonist; host or cells: C2C12
# Sequence (P37172 21-509): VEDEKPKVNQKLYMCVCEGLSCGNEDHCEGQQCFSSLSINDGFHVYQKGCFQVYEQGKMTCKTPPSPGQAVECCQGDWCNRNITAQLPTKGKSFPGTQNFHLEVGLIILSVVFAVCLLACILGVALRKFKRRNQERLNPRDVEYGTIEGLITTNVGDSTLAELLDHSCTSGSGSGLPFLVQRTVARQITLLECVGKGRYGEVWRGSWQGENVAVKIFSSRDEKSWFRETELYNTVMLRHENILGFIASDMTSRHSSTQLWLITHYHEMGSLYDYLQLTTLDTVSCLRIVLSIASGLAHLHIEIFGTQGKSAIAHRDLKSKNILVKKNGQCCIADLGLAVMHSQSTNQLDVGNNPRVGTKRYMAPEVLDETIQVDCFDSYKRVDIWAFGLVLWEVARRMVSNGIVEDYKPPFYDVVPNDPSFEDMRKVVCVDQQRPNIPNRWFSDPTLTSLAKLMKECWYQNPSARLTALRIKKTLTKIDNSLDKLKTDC
# METHOD_NOTES: HTRF pSMAD1 cell-based ALK2 assay (C2C12 cells, BMP6 as agonist)
# CONDITION: HTRF assay, BMP6 as agonist, C2C12 cells; read-out: BMP6 HTRF
To interpret pIC50, take it as minus log10 of a concentration measured in moles per litre.

Memo: CC(O)c1cccc(-c2cnn3cc(-c4ccc(CN5CCCC5)cc4)cnc23)c1 (stereo not drawn) , reported pIC50: 6.62

The molecule CS(=O)(=O)c1cccc(-c2cnn3cc(-c4ccc(OC5(CN6CCCCC6)CC5)cc4)cnc23)c1 showed pIC50 equal to 6.57

Record summary for CC[S+](=O)([O-])c1cccc(-c2cnn3cc(-c4ccc(N5[C@H](C)CNC[C@@H]5C)cc4)cnc23)c1 : reported pIC50 = 6.77

Lookup result for CS(=O)(=O)c1cccc(-c2cnn3cc(-c4ccc(CN5CCCC5)cc4)cnc23)c1 ; measured pIC50: 6.74

Summary for this molecule, C[C@@H]1CNC[C@H](C)N1c1ccc(-c2cnc3c(-c4cccc(S(C)(=O)=O)c4)cnn3c2)cc1 : pIC50 is 6.51

Reported pIC50 of CC(O)c1cccc(-c2cnn3cc(-c4ccc(C5(C)CCNCC5)cc4)cnc23)c1 (stereo not drawn) : 6.42
